# Experiment Summary: Aerosol performances by Next Generation Impactor (NGI)
# Type: physicochemical
# Settings: Example 4 formulation, Multidose DPI (WO 2016/000983)
Measure Name: Delivered Dose
Remember to quote the unit after the number.

[in] Request the reported Delivered Dose associated with "COC(=O)C1=C(C)N(c2cccc(C(F)(F)F)c2)c2n[nH]c(=O)n2[C@@H]1c1ccc(C#N)cc1CC[N+](C)(C)C"
[out] 1.92 mg

----------
# Experiment Summary: Aerosol performances by Next Generation Impactor (NGI)
# Type: physicochemical
# Settings: Example 4 formulation, Multidose DPI
Measure Name: Fine Particle Mass (mg)
All answers are understood in mg, so give the number only.

[in] Request the reported Fine Particle Mass associated with "COC(=O)C1=C(C)N(c2cccc(C(F)(F)F)c2)c2n[nH]c(=O)n2[C@@H]1c1ccc(C#N)cc1CC[N+](C)(C)C"
[out] 0.8

The origin of these recorded values is patent US12491156B2.
